# Tested on: Plasmodium berghei
# experiment: Luciferase/luciferin-expressing antifolate-resistant parasites were used to infect a culture of HepG2 cells that were pre-incubated with compounds. Infected hepatocytes emit light due to the luciferase reaction. Assay results are presented as the percent inhibition of light emission compared to control. […]
# Format: functional
# measurement.parameters: sporozoite, FFLUC_HILL_SLOPE 8.45, FFLUC_R_SQUARED 0.551, read-out: LUCIFERASE INFECTION ASSAY - IC50
endpoint.name: IC50

Any idea what IC50 was measured for COc1ccc(NS(=O)(=O)c2cc(NC(=O)c3cc(C4CC4)on3)ccc2N2CCCCC2)cc1 ?
> 10 µM
